system: ATP; experiment: switch fluorescence ratio, 500 uM ATP over buffer (Cy3 cluster intensity, sum of 5 cycles each) (fold (ratio)); higher = stronger signal-on switching upon ATP binding; sequences stand for … in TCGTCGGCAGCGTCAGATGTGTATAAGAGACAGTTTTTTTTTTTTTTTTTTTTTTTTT…TC; conditions: aptamer strand: ATP DNA aptamer (quencher-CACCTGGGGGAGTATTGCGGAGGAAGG + anchor), 100 nM annealed; ATP concentration: 500 uM;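 further: ATP exposure 15 min at 22 °C before imaging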
Listed below: switch fluorescence ratio values for each entry.

{"columns": ["sequence.string", "test.system", "switch fluorescence ratio"],
 "data": [
  ["GGGGTACGCT", "ATP", 0.995],
  ["CGAGTTGTTT", "ATP", 1]
]}

Switching to the query record.
Query string: Dear colleague, I am looking for the recorded switch fluorescence ratio of the following sequence: TCTGGAAAGG
Result string: 0.984
